Measured values drawn from paper PMC3430621 for this set.

Below, each entry is listed with its recorded Stability (%) Long-term stability.
# TEST NAME: Stability of the analytes in rat plasma samples (freeze-thaw, short-term, long-term, autosampler)
# Assay type: in vitro ADME
# CONDITION: concentration 1 (µg/mL), −20°C 14 days, n = 3
EXPERIMENTAL ENDPOINT: Stability (%) Long-term stability

- MOLECULE: "CC(C)(O)[C@@H]1CC[C@](C)([C@H]2[C@@H](O)C[C@@]3(C)[C@@H]4C[C@H](O[C@@H]5O[C@H](CO)[C@@H](O)[C@H](O)[C@H]5O)[C@H]5C(C)(C)[C@@H](O[C@@H]6OC[C@@H](O)[C@H](O)[C@H]6O)CC[C@@]56C[C@@]46CC[C@]23C)O1 [Astragaloside IV, astragaloside IV]"
  VAL: "−17"
- MOLECULE: "COc1ccc(-c2coc3cc(O[C@@H]4O[C@H](CO)[C@@H](O)[C@H](O)[C@H]4O)ccc3c2=O)cc1"
  VAL: "−7.2"
